Target: HSA (defatted HSAA3782) (Homo sapiens, UniProt P02768)
Construct: two human serum albumin (HSA) samples derived from pooled human plasma; purchased Sigma Aldrich A3782; host or cells: pooled human plasma
Sequence (P02768 25-609): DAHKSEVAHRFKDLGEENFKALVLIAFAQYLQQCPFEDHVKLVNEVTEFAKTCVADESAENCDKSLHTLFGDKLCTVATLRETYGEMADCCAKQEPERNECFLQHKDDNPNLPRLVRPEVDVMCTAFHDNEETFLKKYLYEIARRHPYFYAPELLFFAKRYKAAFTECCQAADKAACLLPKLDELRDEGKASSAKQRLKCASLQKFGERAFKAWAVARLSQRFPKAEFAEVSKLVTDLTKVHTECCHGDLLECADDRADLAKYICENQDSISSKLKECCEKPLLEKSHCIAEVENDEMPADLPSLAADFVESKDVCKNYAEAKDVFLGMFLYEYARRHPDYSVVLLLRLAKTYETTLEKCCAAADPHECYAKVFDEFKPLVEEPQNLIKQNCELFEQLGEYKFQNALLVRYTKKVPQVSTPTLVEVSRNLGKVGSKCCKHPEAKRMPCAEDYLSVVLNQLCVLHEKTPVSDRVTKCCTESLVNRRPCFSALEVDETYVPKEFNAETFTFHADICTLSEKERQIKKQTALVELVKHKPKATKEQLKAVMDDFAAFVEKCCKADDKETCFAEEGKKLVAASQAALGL
Assay: Isothermal titration calorimetry of AA-HSA interactions
Assay type: binding
Details: ITC, two-site model, Site 2, 10 mM NaPO4 pH 7.5, 25 °C; read-out: KD, Site 2
observation-type: pKd
Worth noting: pKd values are minus log10 of concentrations stated in mol/L.

Item under review: O=C(O)c1cc2c(c3c1c([N+](=O)[O-])cc1ccccc13)OCO2 . Reported pKd?
5.95

* * *

Biological target: HSA (defatted HSAA3782) (Homo sapiens)
Construct: two human serum albumin (HSA) samples derived from pooled human plasma; purchased Sigma Aldrich A3782; host or cells: pooled human plasma
Assay: Isothermal titration calorimetry of AA-HSA interactions
Type: binding
Details: KD, Site 1, ITC, two-site model, Site 1, 10 mM NaPO4 pH 7.5, 25 °C
observation-type: Kd (nM)
Form entry: value (nM) — number only.

For the compound shown here, COc1cccc2c1cc([N+](=O)[O-])c1c(C(=O)O)cc3c(c12)OCO3 , give the reported Kd.
690

* * *

Target: HSA (defatted HSAA3782) (Homo sapiens)
Construct: two human serum albumin (HSA) samples derived from pooled human plasma; purchased Sigma Aldrich A3782; host or cells: pooled human plasma
Assay: Isothermal titration calorimetry of AA-HSA interactions
Type: binding
Settings: KD, Site 2, ITC, two-site model, Site 2, 10 mM NaPO4 pH 7.5, 25 °C
observation-type: pKd
For clarity, pKd is expressed as the negative log10 of concentration in mol/L.

I would be grateful if you could share the reported pKd for COc1cccc2c1cc([N+](=O)[O-])c1c(C(=O)O)cc3c(c12)OCO3 [AA-I, aristolochic acid I] .
5.73

* * *

Molecular target: HSA (HSAA3782 and HSAA8763 mercaptoalbumins) (Homo sapiens)
Construct: two human serum albumin (HSA) samples derived from pooled human plasma; purchased Sigma Aldrich A3782; A8763; host or cells: pooled human plasma
Assay: HSA Trp214 fluorescence quenching assay
Format: binding
Conditions: fatty acid-free HSA; mean ± SD of 3 to 5 measurements; 10 mM KPi pH 7.5; read-out: KDapp (HSAA3782)
observation-type: Kd

compound="COc1cccc2c1cc1c3c(cc4c(c32)OCO4)C(=O)N1O [AL-I-NOH, N-hydroxyaristolactam I]" target_entity="HSA (HSAA3782 and HSAA8763 mercaptoalbumins) (Homo sapiens)" observation_type=Kd assay_value="0.65 µM"
compound="O=C(O)c1cc2c(c3c1c([N+](=O)[O-])cc1ccccc13)OCO2 [AA-II, aristolochic acid II]" target_entity="HSA (HSAA3782 and HSAA8763 mercaptoalbumins) (Homo sapiens)" observation_type=Kd assay_value="0.63 µM"

Lab note: next compound to report on.
Looking for the measured Kd of COc1cccc2c1cc1c3c(cc4c(c32)OCO4)C(=O)N1OC(C)=O [AL-I-NOAc] , can you help?
0.67 µM

* * *

Molecular target: HSA (HSAA3782 and HSAA8763 mercaptoalbumins) (Homo sapiens, UniProt P02768)
Construct: two human serum albumin (HSA) samples derived from pooled human plasma; purchased Sigma Aldrich A3782; A8763; host or cells: pooled human plasma
Sequence (P02768 25-609): as above
Test: HSA Trp214 fluorescence quenching assay
Type: binding
Conditions: fatty acid-containing HSA; mean ± SD of 3 to 5 measurements; 10 mM KPi pH 7.5; read-out: KDapp (HSAA8763)
observation-type: Kd
Note: state the figure and append the unit.

molecule="COc1cccc2c1cc1c3c(cc4c(c32)OCO4)C(=O)N1OC(C)=O [AL-I-NOAc]" target_entity="HSA (HSAA3782 and HSAA8763 mercaptoalbumins) (Homo sapiens, UniProt P02768)" observation_type=Kd assay_value="590 nM"
molecule="O=C(O)c1cc2c(c3c1c([N+](=O)[O-])cc1ccccc13)OCO2 [AA-II, aristolochic acid II]" target_entity="HSA (HSAA3782 and HSAA8763 mercaptoalbumins) (Homo sapiens, UniProt P02768)" observation_type=Kd assay_value="360 nM"

Name the recorded Kd for COc1cccc2c1cc1c3c(cc4c(c32)OCO4)C(=O)N1O [AL-I-NOH, N-hydroxyaristolactam I] .
740 nM

* * *

Target: HSA (defatted HSAA3782) (Homo sapiens)
Construct: two human serum albumin (HSA) samples derived from pooled human plasma; purchased Sigma Aldrich A3782; host or cells: pooled human plasma
Assay: Isothermal titration calorimetry of AA-HSA interactions
Type: binding
Conditions: ITC, two-site model, Site 1, 10 mM NaPO4 pH 7.5, 25 °C; read-out: KD, Site 1
observation-type: pKd
For clarity, pKd is expressed as the negative log10 of concentration in mol/L.

I have this compound here, O=C(O)c1cc2c(c3c1c([N+](=O)[O-])cc1ccccc13)OCO2 , and I need its recorded pKd.
5.92
